The measured values listed here are drawn from ChEMBL document CHEMBL3885861.

- Species on record: Rattus norvegicus
- TEST DESCRIPTION: Open TG-GATES - Regimen: Daily Repeat
- Type: toxicity, organism-based, Sprague-Dawley
- Design: regimen Daily Repeat, gender Male, age 6 weeks
- CONDITION NOTES: in vivo, po, 0 mg/kg, […], tissue Blood, route gavage, dose level Control, time 7 day
Lym values, listed per item

{"columns": ["SMILES STR", "Lym [%]"],
 "data": [
  ["CCN(CC)C(=S)SSC(=S)N(CC)CC", 82],
  ["O=C(O)c1ccccc1Nc1ccccc1", 80.2],
  ["CCCCC1C(=O)N(c2ccccc2)N(c2ccccc2)C1=O", 84.2]
]}
